Origin of the recorded values: patent US10851112B2

# Tested on: US3-6-EGFP-HCMV-AD169 viruses
# experimental-details: Fluorescence decay assay against human cytomegalovirus
# Assay type: cell-based, human cytomegalovirus (HCMV)
# test-settings: Human betaherpesvirus 5, AD169, MRC5, 240 h
quantity-measured: pEC50
# log scale: pEC50 equals minus log10 of the concentration in mol/L

A selection of reference data follows.
COc1ccc(C(F)(F)F)cc1N1C(N2CCC(F)(c3ccc(F)cc3)CC2)=Nc2c(csc2F)[C@@H]1CC(=O)O (single isomer, unassigned)    7.62
COc1cccc(N2CCN(C3=Nc4ccsc4[C@H](CC(=O)O)N3c3cc(C(F)(F)F)ccc3OC)C[C@H]2CF)c1 (single isomer, unassigned)    10.00

In the following, a different compound is considered.
Prompt: Return reported pEC50; argument: COc1cc(N2CCN(C3=Nc4cscc4[C@H](CC(=O)O)N3c3cc(C(F)(F)F)ccc3OC)C[C@H]2C)ccn1 (single isomer, unassigned)
Completion: 9.30

###

Parameter pEC50: see the listing below.
# Tested on: US3-6-EGFP-HCMV-AD169 viruses
# experimental-details: Fluorescence decay assay against human cytomegalovirus
# Format: cell-based, human cytomegalovirus (HCMV)
# test-settings: Human betaherpesvirus 5, AD169, MRC5, 240 h
# log scale: pEC50 equals minus log10 of the concentration in mol/L

COc1cc(N2CCN(C3=Nc4ccsc4[C@H](CC(=O)O)N3c3cc(C(F)(F)F)ccc3OC)C[C@H]2C)ccc1F (single isomer, unassigned)    9.28

In the following, a different compound is considered.
Prompt: Return reported pEC50; argument: COc1cc(N2CCN(C3=Nc4ccsc4[C@@H](CC(=O)O)N3c3cc(C(F)(F)F)ccc3OC)C[C@H]2C)ncn1 (single isomer, unassigned)
Completion: 6.58

###

# experimental-details: Plasma protein binding rate test, equilibrium dialysis, CD-1 mouse plasma
# Format: in vitro ADME
# test-settings: mouse plasma (M), equilibrium dialysis 37° C. 4 hours, read-out: plasma protein binding PPB bound (%) (converted)
Parameter fraction unbound at 4 h, 2 μM: see the listing below.
No unit in the answer, only the number.

COc1cc(N2CCN(C3=Nc4ccsc4[C@H](CC(=O)O)N3c3cc(C(F)(F)F)ccc3OC)C[C@H]2C)ncn1 (single isomer, unassigned) [WX-143]    0.015
COc1cc(N2[C@H](C)CN(C3=Nc4ccsc4[C@H](CC(=O)O)N3c3cc(C(F)(F)F)ccc3OC)C[C@@H]2C)ccn1 (single isomer, unassigned) [WX-161]    0.004
COc1cccc(N2CCN(C3=Nc4c(csc4F)[C@H](CC(=O)O)N3c3cc(C(F)(F)F)ccc3OC)C[C@H]2C)c1 (single isomer, unassigned) [WX-132]    0.011

Prompt: Return reported fraction unbound at 4 h, 2 μM; argument: COc1ccnc(N2CCN(C3=Nc4ccsc4[C@H](CC(=O)O)N3c3cc(C(F)(F)F)ccc3OC)C[C@H]2C)c1 (single isomer, unassigned) [WX-139]
Completion: 0.014

Prompt: Return reported fraction unbound at 4 h, 2 μM; argument: COc1cc(N2CCN(C3=Nc4c(C)csc4[C@H](CC(=O)O)N3c3cc(C(F)(F)F)ccc3OC)C[C@H]2C)ccn1 (single isomer, unassigned) [WX-153]
Completion: 0.011

Prompt: Return reported fraction unbound at 4 h, 2 μM; argument: COc1cccc(N2CCN(C3=Nc4ccsc4[C@H](CC(=O)O)N3c3cc(C(F)(F)F)ccc3OC)CC2)c1 (single isomer, unassigned) [WX-088]
Completion: 0.022

###

# System: US3-6-EGFP-HCMV-AD169 viruses
# experimental-details: Fluorescence decay assay against human cytomegalovirus
# Type: cell-based, human cytomegalovirus (HCMV)
# test-settings: Human betaherpesvirus 5, AD169, MRC5, 240 h
quantity-measured: EC50

COc1cccc(N2CCN(C3=Nc4ccsc4[C@@H](CC(=O)O)N3c3cc(C(F)(F)F)ccc3OC)CC2)c1 (single isomer, unassigned)    > 1000 nM
COc1ccnc(N2CCN(C3=Nc4c(csc4F)[C@@H](CC(=O)O)N3c3cc(C(F)(F)F)ccc3OC)C[C@H]2C)n1 (single isomer, unassigned)    > 100 nM
COc1cc(N2CCN(C3=Nc4cc(C)sc4[C@@H](CC(=O)O)N3c3cc(C(F)(F)F)ccc3OC)C[C@H]2C)ccn1 (single isomer, unassigned)    > 10 nM

Prompt: Return reported EC50; argument: COc1ccnc(N2CCN(C3=Nc4c(csc4F)[C@@H](CC(=O)O)N3c3cc(C(F)(F)F)ccc3OC)C[C@H]2C)c1 (single isomer, unassigned)
Completion: 352 nM

Prompt: Return reported EC50; argument: COc1ccc(C(F)(F)F)cc1N1C(N2CCC(F)(c3ccc(F)cc3)CC2)=Nc2ccsc2[C@H]1CC(=O)O (single isomer, unassigned)
Completion: > 1000 nM

Prompt: Return reported EC50; argument: COc1cc(N2CCN(C3=Nc4c(csc4F)[C@@H](CC(=O)O)N3c3cc(C(F)(F)F)ccc3OC)C[C@H]2C)ccn1 (single isomer, unassigned)
Completion: 12 nM

###

# experimental-details: Plasma protein binding rate test, equilibrium dialysis, human plasma
# Type: in vitro ADME
# test-settings: equilibrium dialysis 37° C. 4 hours, read-out: plasma protein binding PPB bound (%) (converted)
Could you please mark Met for values of fraction unbound at 4 h, 2 μM below 0.05 and Not met for values at or above it?

Past entries and their recorded results:
COc1cc(N2CCN(C3=Nc4c(csc4F)[C@H](CC(=O)O)N3c3cc(C(F)(F)F)ccc3OC)C[C@H]2C)ccn1 (single isomer, unassigned)    Met
COc1ccnc(N2CCN(C3=Nc4ccsc4[C@H](CC(=O)O)N3c3cc(C(F)(F)F)ccc3OC)C[C@H]2C)c1 (single isomer, unassigned)    Not met
COc1cc(N2CCN(C3=Nc4cscc4[C@H](CC(=O)O)N3c3cc(C(F)(F)F)ccc3OC)C[C@H]2C)ccn1 (single isomer, unassigned)    Met
COc1ccnc(N2CCN(C3=Nc4c(csc4F)[C@H](CC(=O)O)N3c3cc(C(F)(F)F)ccc3OC)C[C@H]2C)c1 (single isomer, unassigned)    Met

Prompt: Please check: fraction unbound at 4 h, 2 μM for COc1cc(N2[C@H](C)CN(C3=Nc4ccsc4[C@H](CC(=O)O)N3c3cc(C(F)(F)F)ccc3OC)C[C@@H]2C)ccn1 (single isomer, unassigned) , strictly under 0.05 or not?
Completion: Met

Prompt: Please check: fraction unbound at 4 h, 2 μM for COc1cc(N2CCN(C3=Nc4ccsc4[C@H](CC(=O)O)N3c3cc(C(F)(F)F)ccc3OC)CC2)ccn1 (single isomer, unassigned) , strictly under 0.05 or not?
Completion: Not met

Prompt: Please check: fraction unbound at 4 h, 2 μM for COc1cc(N2CCN(C3=Nc4c(C)csc4[C@H](CC(=O)O)N3c3cc(C(F)(F)F)ccc3OC)C[C@H]2C)ccn1 (single isomer, unassigned) , strictly under 0.05 or not?
Completion: Met

Prompt: Please check: fraction unbound at 4 h, 2 μM for COc1cc(N2CCN(C3=Nc4c(csc4F)[C@H](CC(=O)O)N3c3cc(C(F)(F)F)ccc3OC)C[C@H]2C)ncn1 (single isomer, unassigned) , strictly under 0.05 or not?
Completion: Met

Prompt: Please check: fraction unbound at 4 h, 2 μM for COc1cccc(N2CCN(C3=Nc4ccsc4[C@H](CC(=O)O)N3c3cc(C(F)(F)F)ccc3OC)CC2)c1 (single isomer, unassigned) , strictly under 0.05 or not?
Completion: Met

###

# Tested on: US3-6-EGFP-HCMV-AD169 viruses
# experimental-details: Fluorescence decay assay against human cytomegalovirus
# Assay type: cell-based, human cytomegalovirus (HCMV)
# test-settings: Human betaherpesvirus 5, AD169, MRC5, 240 h
quantity-measured: pEC50
# log scale: pEC50 equals minus log10 of the concentration in mol/L

A selection of reference data follows.
COc1cccc(N2CCN(C3=Nc4cc(Cl)sc4[C@H](CC(=O)O)N3c3cc(C(F)(F)F)ccc3OC)CC2)c1 (single isomer, unassigned) [WX-107]    8.40
COc1cc(N2CCN(C3=Nc4c(csc4F)[C@@H](CC(=O)O)N3c3cc(C(F)(F)F)ccc3OC)CC2)ccn1 (single isomer, unassigned) [WX-098]    7.51

In the following, a different compound is considered.
Prompt: Return reported pEC50; argument: COc1cc(N2[C@H](C)CN(C3=Nc4ccsc4[C@@H](CC(=O)O)N3c3cc(C(F)(F)F)ccc3OC)C[C@@H]2C)ccn1 (single isomer, unassigned) [WX-160]
Completion: 7.35

###

# Tested on: US3-6-EGFP-HCMV-AD169 viruses
# experimental-details: Fluorescence decay assay against human cytomegalovirus
# Format: cell-based, human cytomegalovirus (HCMV)
# test-settings: Human betaherpesvirus 5, AD169, MRC5, 240 h
Parameter pEC50: see the listing below.
# log scale: pEC50 equals minus log10 of the concentration in mol/L

A selection of reference data follows.
COc1cccc(N2CCN(C3=Nc4ccsc4[C@H](CC(=O)O)N3c3cc(C(F)(F)F)ccc3OC)CC2)c1 (single isomer, unassigned)    8.70
COc1cc(N2[C@H](C)CN(C3=Nc4ccsc4[C@H](CC(=O)O)N3c3cc(C(F)(F)F)ccc3OC)C[C@@H]2C)ccn1 (single isomer, unassigned)    9.50

Prompt: Return reported pEC50; argument: COc1ccnc(N2CCN(C3=Nc4ccsc4[C@H](CC(=O)O)N3c3cc(C(F)(F)F)ccc3OC)C[C@H]2C)c1 (single isomer, unassigned)
Completion: 8.52

Prompt: Return reported pEC50; argument: COc1cccc(N2CCN(C3=Nc4c(csc4F)[C@H](CC(=O)O)N3c3cc(C(F)(F)F)ccc3OC)C[C@H]2C)c1 (single isomer, unassigned)
Completion: 9.82

Prompt: Return reported pEC50; argument: COc1cc(N2CCN(C3=Nc4c(csc4F)[C@H](CC(=O)O)N3c3cc(C(F)(F)F)ccc3OC)C[C@H]2C)ccn1 (single isomer, unassigned)
Completion: 9.77
